target: Human TASK-1 channels (Homo sapiens (Human), UniProt O14649); assay: Activity on the TASK-1 channel in Xenopus oocytes (two-microelectrode voltage clamp); conditions: human TASK-1 expressed in Xenopus oocytes, currents during pulses to 40 mV, room temperature
Sequence (O14649 whole entry): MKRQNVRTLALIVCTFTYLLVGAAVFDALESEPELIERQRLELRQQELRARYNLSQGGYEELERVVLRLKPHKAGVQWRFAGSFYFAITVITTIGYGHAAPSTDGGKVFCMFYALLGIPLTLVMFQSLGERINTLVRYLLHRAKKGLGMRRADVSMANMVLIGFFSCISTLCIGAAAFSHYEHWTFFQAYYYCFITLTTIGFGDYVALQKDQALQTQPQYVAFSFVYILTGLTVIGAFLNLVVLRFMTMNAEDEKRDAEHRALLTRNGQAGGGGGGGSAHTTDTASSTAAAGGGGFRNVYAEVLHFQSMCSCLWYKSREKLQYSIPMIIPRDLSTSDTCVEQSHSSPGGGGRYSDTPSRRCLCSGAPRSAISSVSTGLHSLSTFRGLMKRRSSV
Listing of entries alongside the reported log10 IC50.
MEASURED ENDPOINT: log10 IC50 (log10 of the value in µM)

COMPOUND	ASSAYED TARGET	MEASURED ENDPOINT	MEASURED NUMBER
CC(=O)N1CCc2c(c(-c3ccc(F)cc3)nn2Cc2ccc(C(F)(F)F)cc2)C1 [Example 6as]	Human TASK-1 channels (Homo sapiens (Human), UniProt O14649)	log10 IC50	-0.18
COc1cccc(-c2nn(Cc3ccc(F)cc3F)c3c2CN(C(C)=O)CC3)c1 [Example 6at]	Human TASK-1 channels (Homo sapiens (Human), UniProt O14649)	log10 IC50	-0.14
CC(=O)N1CCc2c(c(-c3cccc(OC(F)(F)F)c3)nn2Cc2ccc(F)cc2F)C1 [Example 6ap]	Human TASK-1 channels (Homo sapiens (Human), UniProt O14649)	log10 IC50	-0.55
CC(=O)N1CCc2c(c(-c3cccc(C(F)(F)F)n3)nn2Cc2ccc(F)cc2F)C1 [Example 6i]	Human TASK-1 channels (Homo sapiens (Human), UniProt O14649)	log10 IC50	-0.67
N#Cc1cccc(-c2nn(Cc3ccc(F)cc3F)c3c2CN(C(=O)C2CCC2)CC3)c1 [Example 8i]	Human TASK-1 channels (Homo sapiens (Human), UniProt O14649)	log10 IC50	-1.19
COc1ccc(C(=O)N2CCc3c(c(-c4ccc(F)cc4)nn3Cc3ccccc3)C2)cc1 [Example 8g]	Human TASK-1 channels (Homo sapiens (Human), UniProt O14649)	log10 IC50	0.51
